- Experimental Conditions: in 2-butoxyethanol, 283.15 K
Attribute Measured: solubility (mole fraction)

[[record]]
mol = "Cl.N=C(N)N"
attribute_measured = "solubility (mole fraction)"
result_value = 0.111


###

- Experimental Conditions: in isopropanol, 298.15 K
Attribute Measured: solubility (mole fraction)

[[record]]
mol = "Cl.N=C(N)N"
result_value = 0.0886


###

- Experimental Conditions: in methanol, 298.15 K
Attribute Measured: solubility (mole fraction)

[[record]]
mol = "Cl.N=C(N)N"
attribute_measured = "solubility (mole fraction)"
result_value = 0.202


###

- Experimental Conditions: in n-propanol, 283.15 K
Attribute Measured: solubility (mole fraction)

[[record]]
mol = "Cl.N=C(N)N"
result_value = 0.0447


###

- Experimental Conditions: in DMAc, 298.15 K
Attribute Measured: solubility (mole fraction)

[[record]]
mol = "Cl.N=C(N)N"
attribute_measured = "solubility (mole fraction)"
result_value = 0.34


###

- Experimental Conditions: in 2-methoxyethanol, 313.15 K
Attribute Measured: solubility (mole fraction)

[[record]]
mol = "Cl.N=C(N)N"
result_value = 0.368


###

- Experimental Conditions: in ethanol, 313.15 K
Attribute Measured: solubility (mole fraction)

[[record]]
mol = "Cl.N=C(N)N"
result_value = 0.152


###

- Experimental Conditions: in methanol, 283.15 K
Attribute Measured: solubility (mole fraction)

[[record]]
mol = "Cl.N=C(N)N"
result_value = 0.169


###

- Experimental Conditions: in 2-methoxyethanol, 283.15 K
Attribute Measured: solubility (mole fraction)

[[record]]
mol = "Cl.N=C(N)N"
result_value = 0.302


###

- Experimental Conditions: in ethanol, 303.15 K
Attribute Measured: solubility (mole fraction)

[[record]]
mol = "Cl.N=C(N)N"
result_value = 0.128


###

- Experimental Conditions: in NMP, 283.15 K
Attribute Measured: solubility (mole fraction)

[[record]]
mol = "Cl.N=C(N)N"
result_value = 0.128


###

- Experimental Conditions: in 2-propoxyethanol, 313.15 K
Attribute Measured: solubility (mole fraction)

[[record]]
mol = "Cl.N=C(N)N"
result_value = 0.263


###

- Experimental Conditions: in ethanol, 298.15 K
Attribute Measured: solubility (mole fraction)

[[record]]
mol = "Cl.N=C(N)N"
result_value = 0.117


###

- Experimental Conditions: in DMAc, 323.15 K
Attribute Measured: solubility (mole fraction)

[[record]]
mol = "Cl.N=C(N)N"
result_value = 0.434


###

- Experimental Conditions: in methanol, 318.15 K
Attribute Measured: solubility (mole fraction)

[[record]]
mol = "Cl.N=C(N)N"
attribute_measured = "solubility (mole fraction)"
result_value = 0.253


###

- Experimental Conditions: in n-propanol, 303.15 K
Attribute Measured: solubility (mole fraction)

[[record]]
mol = "Cl.N=C(N)N"
result_value = 0.0733


###

- Experimental Conditions: in 2-methoxyethanol, 323.15 K
Attribute Measured: solubility (mole fraction)

[[record]]
mol = "Cl.N=C(N)N"
result_value = 0.394

